- experimental-protocol: Clearance in rat at 1000 mg/kg, iv administered as 0.5 hrs infusion by HPLC-MS method
- Assay type: ADME, organism-based
- test-settings: in vivo
property-measured: clearance (mL/min/kg)
Respond numerically; units are mL/min/kg and should not be typed.

# input Recorded clearance for O=C(O)C[C@@H]1CC[C@H](NC(=O)Cc2cccs2)B(O)O1 , please?
# output 16.2

----------
- experimental-protocol: Clearance in rat at 300 mg/kg, iv administered as 0.5 hrs infusion by HPLC-MS method
- Format: ADME, organism-based
- test-settings: in vivo
property-measured: clearance

# input Recorded clearance for O=C(O)C[C@@H]1CC[C@H](NC(=O)Cc2cccs2)B(O)O1 , please?
# output 21 mL/min/kg

----------
- experimental-protocol: Half life in rat at 1000 mg/kg, iv administered as 0.5 hrs infusion by HPLC-MS method
- Format: ADME, organism-based
- test-settings: in vivo
property-measured: half-life (min)
Respond numerically; units are min and should not be typed.

# input Recorded half-life for O=C(O)C[C@@H]1CC[C@H](NC(=O)Cc2cccs2)B(O)O1 [VABORBACTAM] , please?
# output 24

----------
- experimental-protocol: Inhibition of elastase (unknown origin) using Suc-AAPA-pNA as substrate preincubated for 10 mins followed by substrate addition measured for 30 mins by spectrophotometric analysis
- Set-up: species or system Homo sapiens
pIC50: −log10 of the molar value.
property-measured: pIC50

# input Recorded pIC50 for O=C(O)C[C@@H]1CC[C@H](NC(=O)Cc2cccs2)B(O)O1 , please?
# output < 3.00

----------
- experimental-protocol: Half life in rat at 300 mg/kg, iv administered as 0.5 hrs infusion by HPLC-MS method
- Assay type: ADME, organism-based
- test-settings: in vivo
property-measured: half-life (min)
Respond numerically; units are min and should not be typed.

# input Recorded half-life for O=C(O)C[C@@H]1CC[C@H](NC(=O)Cc2cccs2)B(O)O1 , please?
# output 15.6

----------
- experimental-protocol: Cmax in rat at 300 mg/kg, iv administered as 0.5 hrs infusion by HPLC-MS method
- Assay type: ADME, organism-based
- Parameters: dose 300 mg/kg, route intravenous
- test-settings: in vivo
property-measured: Cmax (µg/mL)
Respond numerically; units are µg/mL and should not be typed.

# input Recorded Cmax for O=C(O)C[C@@H]1CC[C@H](NC(=O)Cc2cccs2)B(O)O1 [VABORBACTAM] , please?
# output 735

----------
- experimental-protocol: Inhibition of Escherichia coli MV1183 TEM-1 using nitrocefin as substrate preincubated for 10 mins followed by substrate addition measured for 500 secs
Each record here notes measured Ki.
Remember to put the unit after the number in your answer.

{"compound": "CC(=O)NC(Cc1cccc(C(=O)O)c1O)B(O)O (configuration not stated)", "Ki": "13 nM"}

Proceeding to the next compound to report its Ki.
# input Recorded Ki for O=C(Cc1ccccc1)NC(Cc1cccc(C(=O)O)c1)B(O)O (configuration not stated) , please?
# output 6 nM

----------
- target-desc: Chymase (Homo sapiens)
- Sequence (P23946 whole entry): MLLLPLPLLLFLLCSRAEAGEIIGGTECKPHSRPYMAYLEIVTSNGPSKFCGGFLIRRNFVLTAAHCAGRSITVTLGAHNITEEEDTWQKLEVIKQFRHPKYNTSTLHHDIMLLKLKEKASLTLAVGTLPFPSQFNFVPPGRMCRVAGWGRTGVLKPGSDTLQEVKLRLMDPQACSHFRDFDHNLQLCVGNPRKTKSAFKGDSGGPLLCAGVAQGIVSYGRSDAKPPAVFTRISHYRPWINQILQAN
pIC50: −log10 of the molar value.
property-measured: pIC50

# input Recorded pIC50 for O=C(O)C[C@@H]1CC[C@H](NC(=O)Cc2cccs2)B(O)O1 [VABORBACTAM] , please?
# output < 3.00

----------
Each record here notes measured MEC.
- target-desc: Beta-lactamase (Klebsiella pneumoniae) (UniProt Q93LQ9)
- Sequence (Q93LQ9 as listed by the source): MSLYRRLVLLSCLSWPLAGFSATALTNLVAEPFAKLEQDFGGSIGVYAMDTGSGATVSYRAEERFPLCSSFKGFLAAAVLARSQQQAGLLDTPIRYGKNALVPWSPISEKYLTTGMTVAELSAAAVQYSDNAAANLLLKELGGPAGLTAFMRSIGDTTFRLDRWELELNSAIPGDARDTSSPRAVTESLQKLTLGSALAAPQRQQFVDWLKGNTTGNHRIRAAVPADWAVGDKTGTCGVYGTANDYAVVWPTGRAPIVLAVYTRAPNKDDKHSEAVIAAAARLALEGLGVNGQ
- experimental-protocol: Inhibition of Klebsiella pneumoniae KP1004 KPC 2 carbapenemase assessed as minimum concentration required to reduce biapenem MIC from […] ug/ml to 1 ug/mL by broth microdilution method
Respond numerically; units are µg/mL and should not be typed.

# input MEC of O=C(O)C[C@@H]1CC[C@H](NC(=O)C[C@H]2CCCCN2)B(O)O1 on Beta-lactamase (Klebsiella pneumoniae) (UniProt Q93LQ9)?
# output 0.15

# input MEC of O=C(O)C[C@@H]1CC[C@H](NC(=O)CCc2ccccc2)B(O)O1 on Beta-lactamase (Klebsiella pneumoniae) (UniProt Q93LQ9)?
# output 0.3

# input MEC of NCCSCC(=O)N[C@H]1CC[C@@H](CC(=O)O)OB1O on Beta-lactamase (Klebsiella pneumoniae) (UniProt Q93LQ9)?
# output 0.3

----------
Each record here notes measured MEC.
- target-desc: Beta-lactamase (Klebsiella pneumoniae) (UniProt Q93LQ9)
- experimental-protocol: Inhibition of Klebsiella pneumoniae KP1004 KPC 2 carbapenemase assessed as minimum concentration required to reduce biapenem MIC from […] ug/ml to 1 ug/mL by broth microdilution method
Respond numerically; units are µg/mL and should not be typed.

Worked examples, 8 compounds total:
{"compound": "O=C(O)C[C@@H]1CC[C@H](NC(=O)Cc2cccc(O)c2)B(O)O1", "unit-abbreviation": "µg/mL", "measurement": 1.25}
{"compound": "Nc1cc(CC(=O)N[C@H]2CC[C@@H](CC(=O)O)OB2O)ccn1", "unit-abbreviation": "µg/mL", "measurement": 0.04}
{"compound": "N[C@H](C(=O)N[C@H]1CC[C@@H](CC(=O)O)OB1O)c1ccccc1", "unit-abbreviation": "µg/mL", "measurement": 0.3}
{"compound": "O=C(O)C[C@@H]1CC[C@H](NC(=O)C2CC2)B(O)O1", "unit-abbreviation": "µg/mL", "measurement": 0.15}
{"compound": "O=C(O)C[C@@H]1CC[C@H](NC(=O)Cc2ccccn2)B(O)O1", "unit-abbreviation": "µg/mL", "measurement": 0.15}
{"compound": "CO/N=C(\\C(=O)N[C@H]1CC[C@@H](CC(=O)O)OB1O)c1csc(N)n1 (stereo in doubt)", "unit-abbreviation": "µg/mL", "measurement": 1.25}
{"compound": "Nc1nc(CC(=O)N[C@H]2CC[C@@H](CC(=O)O)OB2O)cs1", "unit-abbreviation": "µg/mL", "measurement": 0.61}
{"compound": "O=C(O)C[C@@H]1CC[C@H](NC(=O)Cc2ccccc2)B(O)O1", "unit-abbreviation": "µg/mL", "measurement": 0.15}

Proceeding to the next compound to report its MEC.
# input Recorded MEC for O=C(O)C[C@@H]1CC[C@H](NC(=O)Cc2ccccc2O)B(O)O1 , please?
# output 0.16

The values you see were collected from ChEMBL document CHEMBL3576866.
